# Measurement Notes: Pharmacokinetics of STF-1623 after subcutaneous injection
# Assay type: in vivo, mouse
# Measurement Context: mouse, plasma, sc, 300 mg/kg
Parameter Measured: concentration at 24 h

Q. Return value of concentration at 24 h for input COc1cccc2c(N3CCC(CCP(=O)(O)O)CC3)ncnc12 , no commentary.
A. > 100 nM

---

Target chain: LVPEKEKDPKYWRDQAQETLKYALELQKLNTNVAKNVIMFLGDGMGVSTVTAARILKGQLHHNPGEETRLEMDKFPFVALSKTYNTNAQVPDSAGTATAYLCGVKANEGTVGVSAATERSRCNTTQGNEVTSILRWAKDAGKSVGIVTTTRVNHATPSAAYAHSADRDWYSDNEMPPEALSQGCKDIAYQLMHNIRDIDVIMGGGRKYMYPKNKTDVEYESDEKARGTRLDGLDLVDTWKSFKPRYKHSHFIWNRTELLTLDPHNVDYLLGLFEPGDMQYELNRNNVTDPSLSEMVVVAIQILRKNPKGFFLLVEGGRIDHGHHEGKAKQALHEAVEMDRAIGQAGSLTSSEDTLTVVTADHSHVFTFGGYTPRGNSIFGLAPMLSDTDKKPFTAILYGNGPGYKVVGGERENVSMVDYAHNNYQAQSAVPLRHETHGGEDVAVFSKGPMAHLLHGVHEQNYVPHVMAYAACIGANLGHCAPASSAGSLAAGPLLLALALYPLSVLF
Parameter Measured: Ki

Q. Return value of Ki for input COc1cc2ncnc(N3CCC(CCP(=O)(O)O)CC3)c2cc1OC , no commentary.
A. > 100 µM

Values compiled from paper PMC7990037.
